ASSAY_SYSTEM: UniProt:P25103
Sequence (P25103 whole entry): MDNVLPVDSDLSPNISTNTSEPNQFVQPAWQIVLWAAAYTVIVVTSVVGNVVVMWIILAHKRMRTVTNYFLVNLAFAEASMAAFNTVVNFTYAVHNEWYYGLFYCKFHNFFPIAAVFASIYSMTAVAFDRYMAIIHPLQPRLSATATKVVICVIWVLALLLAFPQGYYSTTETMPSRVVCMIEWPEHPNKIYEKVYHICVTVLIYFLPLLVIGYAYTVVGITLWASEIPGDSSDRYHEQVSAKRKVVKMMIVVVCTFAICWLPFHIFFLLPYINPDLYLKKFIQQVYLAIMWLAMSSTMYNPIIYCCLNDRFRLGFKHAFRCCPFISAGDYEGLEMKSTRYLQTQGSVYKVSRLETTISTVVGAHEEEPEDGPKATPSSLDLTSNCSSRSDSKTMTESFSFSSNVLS
EXPERIMENTAL_PROTOCOL: Antagonist activity at His6-tagged NK1 receptor (unknown origin) expressed in CHO cells assessed as inhibition of substance-P-induced IP1 accumulation at 5 x 10^-5M preincubated for 10 mins followed by substance-P addition measured after 30 mins by HTRF-FRET assay relative to control
Type: functional, cell-based
ATTRIBUTE_MEASURED: inhibition (%)
Numeric only. Scale: %

// inhibition value for Cc1ccc([S+]([O-])C2=C(c3ccco3)OC(N)=C(C#N)C2c2ccc(Cl)cc2)cc1 (racemic) : 12.5

// inhibition value for Cc1ccc([S@+]([O-])C2=C(c3ccccn3)OC(N)=C(C#N)[C@H]2c2ccccc2)cc1 : 51.1

// inhibition value for Cc1ccc([S@@+]([O-])C2=C(c3ccccn3)OC(N)=C(C#N)[C@@H]2c2ccc([N+](=O)[O-])cc2)cc1 : 20.6

// inhibition value for Cc1ccc([S@+]([O-])C2=C(c3ccccn3)OC(N)=C(C#N)[C@H]2c2cc(C(F)(F)F)cc(C(F)(F)F)c2)cc1 : 28.6

// inhibition value for Cc1ccc(C2C(C#N)=C(N)OC(c3ccccn3)=C2[S+]([O-])c2ccc(C)cc2)cc1 (racemic) : 32.2

// inhibition value for Cc1ccc([S@+]([O-])C2=C(c3ccccn3)OC(N)=C(C#N)[C@H]2c2ccc([N+](=O)[O-])cc2)cc1 : 49.7

// inhibition value for Cc1ccc([C@@H]2C(C#N)=C(N)OC(c3ccccn3)=C2[S@@+]([O-])c2ccc(C)cc2)cc1 : 50.8

// inhibition value for Cc1ccc([S+]([O-])C2=C(c3ccccn3)OC(N)=C(C#N)C2c2ccc(F)cc2)cc1 (racemic) : 2.51

// inhibition value for Cc1ccc([S@@+]([O-])C2=C(c3ccccn3)OC(N)=C(C#N)[C@@H]2c2ccc(Cl)cc2)cc1 : 5.8

// inhibition value for COc1ccc([C@@H]2C(C#N)=C(N)OC(c3ccccn3)=C2[S@@+]([O-])c2ccc(C)cc2)cc1 : 43.9

// inhibition value for COc1ccc([C@H]2C(C#N)=C(N)OC(c3ccccn3)=C2[S@+]([O-])c2ccc(C)cc2)cc1 : 28.1

// inhibition value for Cc1ccc([C@H]2C(C#N)=C(N)OC(c3ccccn3)=C2[S@+]([O-])c2ccc(C)cc2)cc1 : 23.7

// inhibition value for N#CC1=C(N)OC(c2ccccn2)=C([S+]([O-])c2ccccc2)C1c1ccc([N+](=O)[O-])cc1 (racemic) : 45.9

// inhibition value for Cc1ccc([S@@+]([O-])C2=C(c3ccccn3)OC(N)=C(C#N)[C@@H]2c2ccccc2)cc1 : 20.9

// inhibition value for N#CC1=C(N)OC(c2ccccn2)=C([S+]([O-])c2ccc([N+](=O)[O-])cc2)C1c1ccc(Cl)cc1 (racemic) : 32.2

// inhibition value for N#CC1=C(N)OC(c2ccccn2)=C([S+]([O-])c2ccccc2)C1c1ccccc1 (racemic) : 19.8

// inhibition value for Cc1ccc(C2C(C#N)=C(N)OC(c3ccccn3)=C2[S+]([O-])c2ccc([N+](=O)[O-])cc2)cc1 (racemic) : 38.1
